List of In vitro half-life t1/2 in human liver microsomes values.
test: Determination of metabolic stability in human liver microsomes; format: in vitro ADME; details: repeated experiment (Table 4); 0.5 mg/mL human liver microsomes, 1 μM test compound, 2 mM NADPH, 37° C., 0-30 minutes
# unit: min | format: bare number

Solved cases (2 shown):
Structure smiles string	Measured value
[2H]C1([2H])C([2H])([2H])C([2H])([2H])C([2H])(n2nnnc2CCCCOc2ccc3c(c2)CCC(=O)N3)C([2H])([2H])C1([2H])[2H]	86.9
[2H]C1([2H])C(=O)Nc2ccc(OCCCCc3nnnn3C3([2H])C([2H])([2H])C([2H])([2H])C([2H])([2H])C([2H])([2H])C3([2H])[2H])cc2C1([2H])[2H]	98.6

Input O=C1CCc2cc(OCCCCc3nnnn3C3CCCCC3)ccc2N1 . Output In vitro half-life t1/2 in human liver microsomes: 61.8
